Data origin, for the record: the COVID Moonshot data (paper PMC11187573)

# Target Or System: SARS-CoV-2 Main Protease (SARS-CoV-2)
# Assay Conditions: 50.0 µM
Below, each entry is listed alongside its reported inhibition.
Endpoint: inhibition (%)

COc1ccc(OC)c(CNC(=O)Nc2cn(C)c(=O)c3ccccc23)c1	3.4
CC1(C)Cc2cccc(OCCNC(=O)c3cc(=O)[nH]c4cc(F)ccc34)c2O1	69.9
Cc1cc(-c2nc3ccccc3[nH]2)ccc1O	-36.8
O=C(c1cc(=O)[nH]c2ccc(F)cc12)N1CCN(S(=O)(=O)c2ccccc2)CC1	11.9
Cc1nc(N)sc1CN1CCN(Cc2cccc(Cl)c2)C1=O	35.6
NS(=O)(=O)c1ccc(N2CCC(CO)CC2)cc1	7.03
N#Cc1ccc(S(=O)(=O)N2CCN(C(=O)c3cc(=O)[nH]c4ccc(F)cc34)CC2)cc1	10.4
CC(=O)/C(C#N)=C(\O)Nc1ccc(C(F)(F)F)cc1	-3
Cc1[nH]ncc1NC(=O)Cc1cccc(Cl)c1	6.93
Cc1ccncc1NC(=O)C(C)CC1CC1 (stereo not given)	2.12
